# Tested on: Wolbachia pipientis
# Assay Name: Anti-Wolbachia Cell-Based Screen
# Type: functional
# Design: scale not given: in the data most compounds retested in dose-response had high values
# Assay Conditions: 5 µM
Among all 48,000 compounds or so, about 13,000 (27%) showed an effect of 50% or more. The list shows a part of the results.
Parameter: Percent Effect (%)
The figure you give is taken to be in %; do not add the unit.

                                   compound         assay_target  assay_value
0  Cn1cc(CNCCC(=O)NCc2ccccc2)c(-c2cccnc2)n1  Wolbachia pipientis       -3.655
1  CC(CNC(=O)c1cccnc1Oc1cccnc1)N(C)C (configuration not stated)  Wolbachia pipientis       -15.37
2  COC(=O)C(NC(=O)c1ccc(C)cc1C)c1cccnc1 (configuration not stated)  Wolbachia pipientis         2.23

As a next step, examine the compound that follows.
// query Param readout = Percent Effect; param system = Wolbachia pipientis; param query = "COc1ccc(Oc2ncccc2C(N)=O)cc1CN1CCCC1" ; response: value
// result -15.13

Hello, the source for this data is ChEMBL document CHEMBL3988442, in case you need it.
